Values compiled from paper PMC11948038.

Molecular target: cytochrome c (Homo sapiens)
Construct: obtained by immunizing male rabbits with full-length recombinant Cc; made in house; host or cells: E. coli BL21 (DE3)
Sequence (P99999 whole entry): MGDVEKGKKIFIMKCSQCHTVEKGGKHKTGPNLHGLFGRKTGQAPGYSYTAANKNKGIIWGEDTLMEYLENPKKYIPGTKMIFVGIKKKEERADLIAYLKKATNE
Experiment: ITC titration of ANP32A/B C-terminal peptides with reduced Cc
Settings: single binding-site model; 1 mM peptide onto 110 or 150 µM reduced Cc; 10 mM sodium phosphate pH 6.3; relative error 20%
Ends that are not written are not given here.
Measured quantity: pKd
Note on pKd: it is the negative log10 of concentration, concentration in mol/L.

Residues	pKd
EEERGQKRKRETEDEGEDDD [ANP32A230‐249 P241T]	3.72

We now examine a further sequence.
Value lookup for pKd; key = EEERGEKRKRETEDEGEDDD [ANP32A230‐249 Q235E/P241T] 3.72
